Hey, just so you know, these numbers are from patent US8589175B2.

Tested on: CYP2C19
Experiment: dosing recommendation per CYP2C19 metabolizer subgroup as percentage of usual population dose (Equations 4-6)
Conditions: human
# 1 al (effect of 1 non-functional allele) annotations
measuredAttribute: 1 al (effect of 1 non-functional allele)

compound | systemName | measuredAttribute | result
CN(C)CCC=C1c2ccccc2COc2ccccc21 [doxepin] | CYP2C19 | 1 al (effect of 1 non-functional allele) | 0.13
CN1CCN(C2=Nc3cc(Cl)ccc3Nc3ccccc32)CC1 [clozapine] | CYP2C19 | 1 al (effect of 1 non-functional allele) | 0.13
CN1CCN2c3ccccc3Cc3ccccc3C2C1 (stereo not drawn) [mianserin] | CYP2C19 | 1 al (effect of 1 non-functional allele) | 0.00
CC(CN(C)C)CN1c2ccccc2CCc2ccccc21 (stereo not drawn) [trimipramine] | CYP2C19 | 1 al (effect of 1 non-functional allele) | 0.53
CNCCCC12CCC(c3ccccc31)c1ccccc12 [maprotiline] | CYP2C19 | 1 al (effect of 1 non-functional allele) | 0.00
CN(C)CCCC1(c2ccc(F)cc2)OCc2cc(C#N)ccc21 (stereo not drawn) [citalopram] | CYP2C19 | 1 al (effect of 1 non-functional allele) | 0.22
CN[C@H]1CC[C@@H](c2ccc(Cl)c(Cl)c2)c2ccccc21 [sertraline] | CYP2C19 | 1 al (effect of 1 non-functional allele) | 0.14
O=C(NCCN1CCOCC1)c1ccc(Cl)cc1 [moclobemide] | CYP2C19 | 1 al (effect of 1 non-functional allele) | 0.25
CN(C)CCCN1c2ccccc2CCc2ccc(Cl)cc21 [clomipramine] | CYP2C19 | 1 al (effect of 1 non-functional allele) | 0.28
